Cited source: PubChem BioAssay (NCI)

Please provide measured growth inhibition for the entries that follow.
# MEASUREMENT_DESCRIPTION: NCI Yeast Anticancer Drug Screen. Data for the mec2-1 strain (AID 157)
# MEASUREMENT_CONDITIONS: S. cerevisiae mec2-1 strain, at 50.0 µM, hits give high values
Compounds without any hit were thinned out: in the full panel of roughly 79,000, 15% have a hit.
Kindly answer with a numeric value in %, unit omitted.

Data request: Which measured growth inhibition value corresponds to C/C(=N/NS(=O)(=O)c1ccc(C)cc1)C(=NO)/C(C)=N\NS(=O)(=O)c1ccc(C)cc1 ?
Data returned: 70.2

Data request: Also, COC(=O)/C(C#N)=C(/NCc1ccccc1)Nc1ccccc1 please.
Data returned: -13.1

Data request: Also, COc1ccc2nc3cc(Cl)ccc3c(C=O)c2c1 please.
Data returned: 7.65

Data request: Also, CNC(=O)Nc1nnnc2ccccc12 please.
Data returned: 1.45

Data request: Also, C[C@H]1C(=O)OCN1S(=O)(=O)C(C)(C)C please.
Data returned: 25

Data request: Also, CCC1(CCCCCBr)OCCO1 please.
Data returned: 12.6

Data request: Also, CCOC(=O)C(NC(=O)Cc1ccccc1)C(=O)O (stereo unspecified) please.
Data returned: 15.5

Data request: Also, COc1cc(C)c2cc(C)cc(C)c2n1 please.
Data returned: 6.05

Data request: Also, CCCCCCC(C)CC(=O)O (stereo unspecified) please.
Data returned: -3.85

Data request: Also, COC(=O)C1CC(c2ccc(Cl)cc2)=NO1 (stereo unspecified) please.
Data returned: 8.25

Data request: Also, CCCCOC(=O)Nc1ccccc1OCC please.
Data returned: -19.8

Data request: Also, CC(C)C(C)(O)c1ccccc1 (stereo unspecified) please.
Data returned: -28.8

Data request: Also, COc1cc(C)c(C2NC(=O)c3ccccc3N2)cc1C (stereo unspecified) please.
Data returned: 2.8

Data request: Also, Cc1cnc2[nH]c(-c3ccc(Cl)cc3)cc(=O)c2c1 please.
Data returned: -21.6

Data request: Also, CC(C)C(N)C(=O)Nc1nncs1 (stereo unspecified) please.
Data returned: -2.15

Data request: Also, CC(=O)O[C@H]1CC(C)(C)C(=C=C/C(C)=C/C=C/C=C/C=C(C)/C=C2C=C(/C=C/[C@@]34O[C@]3(C)C[C@@H](O)CC4(C)C)C(=O)O/2)[C@](C)(O)C1 please.
Data returned: 32.5

Data request: Also, CCC1=CCN(c2cc(C)ccn2)OC1c1ccc(OC)cc1 (stereo unspecified) please.
Data returned: 6.15

Data request: Also, CC1CC(=O)CC(C)C1 (stereo unspecified) please.
Data returned: -0.1

Data request: Also, COc1cccc(C(=O)C(O)c2cccc(OC)c2OC)c1OC (stereo unspecified) please.
Data returned: -5.45

Data request: Also, O=C(O)c1ccc(OC2CCCCC2)cc1 please.
Data returned: 12.1

Data request: Also, CC(=O)Oc1ccc(/C=N\N(C)CN(C)/N=C/c2ccc(OC(C)=O)cc2)cc1 please.
Data returned: -9.65

Data request: Also, Cn1c(=O)c2[nH]c(Cl)nc2n(C)c1=O please.
Data returned: -23.6

Data request: Also, C1=Nc2ccccc2Cn2nncc21 please.
Data returned: 21

Data request: Also, Cc1cc(Cl)ccc1OCC(=O)OCCBr please.
Data returned: 17.9

Data request: Also, O=C1c2cccc3c(Br)ccc(c23)C(=O)N1CCCN1CCOCC1 please.
Data returned: 77.7

Data request: Also, CC1CCCC2(C1)OCC(O)CO2 (stereo unspecified) please.
Data returned: -2.2
